targetEntity: Alpha-2C adrenergic receptor (Homo sapiens)
protocolNotes: compounds altering alpha2C-coupled GIRK flux – cell-based, HEK293 alpha2C/GIRK1/2, thallium flux, primary screen (AID 624);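 further: slope of fluorescence ratio to pre-addition baseline per second over 15 to 24 s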
conditionParameters: thallium flux BTC fluorescence, at 10 µM, actives lie on both sides
The threshold is inclusive: slope of exactly 0.006 counts as Fulfilled; values below receive Not fulfilled.

Query: Threshold query (slope >= 0.006) on CCN(CC)c1ccc(/C=N/n2nnnc2N)c(O)c1
Result: Fulfilled

Query: Does the reported slope for CCCCOc1ccc(S(=O)(=O)n2c(C)nc3ccccc32)cc1 fall at or above the 0.006 mark?
Result: Not fulfilled

Query: Textbook exercise: given the entry CCCc1nnc2n1N=C(c1ccc(OC)c(OC)c1)CS2 , state whether its slope is greater than or equal to 0.006.
Result: Not fulfilled

Query: Exam item: decide whether the reported slope for O=C(NC1CCCC1)C1CCCN(S(=O)(=O)c2cccc3cccnc23)C1 (stereo not drawn) is at least 0.006.
Result: Fulfilled

Query: Exam item: decide whether the reported slope for Cc1nnc(NCCc2ccccc2)n(N)c1=O is at least 0.006.
Result: Not fulfilled

---

protocolNotes: reduction of polyQ htt aggregates in cells – imaging, exon1htt(103Q)mCFP cells, high-content imaging, primary screen (AID 483);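 further: compound exposure lasted 3 days before fixation; percent of the per-plate median nuclei count of sample wells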
conditionParameters: exon1htt(103Q)mCFP cell line, aggregate imaging, at 2 µM; measured here: cell count, toxicity
Measured nuclei count by item
Give just the number in %; leave the unit off.

                                   compound  unitsofmeasure  endpointvalue
0  CCOC(=O)c1ccc(S(=O)(=O)Nc2cc(C(C)(C)C)no2)cc1               %            108
1  O=C(CSc1nnc(-c2ccco2)n1-c1ccccc1)N1CCN(C(=O)c2ccco2)CC1               %           59.4
2  COc1ccccc1NC(=O)CSc1nnc(-c2ccncc2)n1CC1CCCO1 (stereo unspecified)               %           92.8
3  C=CCn1c(SCC2=C(C(=O)OCC)C(C)NC(=O)N2)nnc1C1CCCCC1 (stereo unspecified)               %            113

Memo: O=C(CCC(=O)N1CCc2ccccc2C1)N1CCN(S(=O)(=O)c2ccccc2)CC1 , reported nuclei count: 131

// field: nuclei count; key: Cc1cccc(C(=O)N2CCC(n3nnc4cc(F)ccc43)CC2)c1 ; value = 101

For record COc1cc(NC2=CC(=O)CC(C)(C)C2)cc(OC)c1 the listed nuclei count is 110

Just so you know, measured nuclei count for Cc1nnc(SCc2ccccc2)n1N came out at 101

// recorded nuclei count for COC(=O)CCC(=O)Nc1ccc(S(=O)(=O)N2CCCCCC2)cc1 : 97.4

GET /value?item= O=C(c1ccco1)N1CCN(S(=O)(=O)c2ccc3c(c2)CCN3C(=O)C2CCC2)CC1 &field=nuclei count returns 97

Lab note: measured nuclei count of O=C(NC1(C(=O)NC2CCCCC2)CCCCC1)c1ccc2c(c1)OCO2 was 96.2

---

protocolNotes: endothelial E-selectin expression blockers – imaging, HUVEC, immunofluorescence, MLSMR starter and 10KST1 sets, primary screen (AID 487);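 further: signal is fraction of cell area covered by stained E-selectin grains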
conditionParameters: HUVEC TNFalpha-induced E-selectin immunofluorescence imaging, at 2 µM; stronger effect = higher value
Active and inactive are the calls of the source.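 The calls were made as follows: active = visually confirmed hit in the image check and inhibition above 20%; inconclusive = visually confirmed hit but inhibition not above 20%; inactive = no visual hit in the image check.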
quantityName: inhibition

The following compounds have reported results that may help.
>>> print(df.to_string())
                                   compound  quantityname      endpointvalue
0  CCN1CCCC1CN=Cc1c(O)n(-c2ccccc2)c(=O)c2ccccc12 (stereo unspecified)    inhibition  -12.1% (inactive)
1  Cc1nn(C)c(C)c1NC(=O)CCSc1nc(-c2ccco2)cc(C(F)(F)F)n1    inhibition   23.6% (inactive)
2     CCc1cc2c(CN3CCN(CCO)CC3)cc(=O)oc2cc1O    inhibition  -34.5% (inactive)
3  CSc1ccc(-c2nc(CSCC(=O)N3CCOCC3)c(C)o2)cc1    inhibition  -16.1% (inactive)

Now for the compound whose inhibition we want.
The reported inhibition of the compound CCCCn1nc(C(=O)N2CCc3ccccc32)c2ccccc2c1=O was 36.5% (inactive)

---

targetEntity: Alpha-2C adrenergic receptor (Homo sapiens) (UniProt P18825)
Sequence (P18825 whole entry, looked up): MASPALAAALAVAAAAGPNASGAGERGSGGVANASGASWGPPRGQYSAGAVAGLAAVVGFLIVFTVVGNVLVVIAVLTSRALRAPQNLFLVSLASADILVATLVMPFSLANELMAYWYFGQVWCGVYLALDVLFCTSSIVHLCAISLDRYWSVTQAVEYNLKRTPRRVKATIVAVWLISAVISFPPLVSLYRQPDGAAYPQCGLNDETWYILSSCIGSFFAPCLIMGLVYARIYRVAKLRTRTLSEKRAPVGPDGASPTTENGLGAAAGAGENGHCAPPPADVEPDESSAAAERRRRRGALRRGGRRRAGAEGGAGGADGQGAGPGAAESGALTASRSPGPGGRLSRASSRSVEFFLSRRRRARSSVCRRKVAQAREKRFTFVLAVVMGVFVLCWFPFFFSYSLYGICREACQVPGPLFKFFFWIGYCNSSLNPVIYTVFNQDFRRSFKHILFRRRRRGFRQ
protocolNotes: compounds altering alpha2C-coupled GIRK flux – cell-based, HEK293 alpha2C/GIRK1/2, thallium flux, primary screen (AID 624);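 further: slope of fluorescence ratio to pre-addition baseline per second over 15 to 24 s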
conditionParameters: thallium flux BTC fluorescence, at 10 µM, actives lie on both sides
// reported slope per item
// print number alone

The following compounds have reported results that may help.
>>> df
                                   compound                              targetentity  endpointvalue
0   CCn1c(SCc2cccc(C(F)(F)F)c2)nnc1-c1ccco1  Alpha-2C adrenergic receptor (Homo sapiens) (UniProt P18825)        0.00568
1  C(=C\c1ccccc1)/CSc1nnc(-c2ccccn2)n1Cc1ccco1  Alpha-2C adrenergic receptor (Homo sapiens) (UniProt P18825)        0.00478
2  Cc1ccc(NC(=O)C2CC=CCC2C(=O)N2CCCCC2)cc1 (stereo unspecified)  Alpha-2C adrenergic receptor (Homo sapiens) (UniProt P18825)        0.00665

Per the record, COc1ccc(NC(=O)CC2Sc3ncnn3C2=O)cc1 (stereo unspecified) has slope of 0.0059

response.value for CC(C)CCN1CC(C(=O)NCc2ccccc2)CC1=O (stereo unspecified) (field: slope) = 0.00611

According to the records, this compound CC1CC(C)CN(CCCNC(=O)c2ccc3c(c2)NC(=O)C(N2CCCCC2)S3)C1 (stereo unspecified) displays slope of 0.00531

---

protocolNotes: reduction of polyQ htt aggregates in cells – imaging, exon1htt(103Q)mCFP cells, high-content imaging, primary screen (AID 483);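 further: compound exposure lasted 3 days before fixation; percent of the per-plate median nuclei count of sample wells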
conditionParameters: exon1htt(103Q)mCFP cell line, aggregate imaging, at 2 µM; measured here: cell count, toxicity
Entries annotated with measured nuclei count
Give the number; % is assumed, so skip it.

So for Cn1c(=O)c2c(nc(-n3ccnc3)n2C)n(C)c1=O , the logged nuclei count turned out to be 85.8

What the record says about Cn1nnnc1SCC(=O)NC1CCCCC1 : nuclei count is 84.3

Sure, the documented nuclei count for CC1=C(C(=O)OCc2ccccc2)C(c2ccc(C)o2)C2=C(CCCC2=O)N1 (stereo not drawn) is 101

The compound listed as C=CCN=C1SCC(=O)N1S(=O)(=O)c1ccc(C)cc1 has a reported nuclei count of 91.1

Just so you know, measured nuclei count for Cc1ccc(Nc2nc(CSc3nnc(-c4cccs4)o3)cs2)cc1 came out at 110

For COc1ccc(C2CC(c3ccc(OC)cc3)n3nc(N)nc3N2)cc1 (stereo not drawn) the compound record lists nuclei count as 99.7

---

protocolNotes: inhibitors of TNFa-induced NFkB p65 translocation, primary screen, imaging, HUVEC, MLSMR starter and 10KST1 sets (AID 438);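 further: compound added about 3h40 before a 20 min TNFalpha stimulation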
conditionParameters: HUVEC TNFa-induced p65 nuclear translocation; measured here: nuclei count (cytotoxicity indicator), at 2.08 µM
quantityName: cell count
Just the number.

>>> df
                                   molecule  endpointvalue
0  O=C(Cn1nc(Cc2cccnc2)c2ccccc2c1=O)NCC1CCCO1 (stereo not drawn)            461
1  CCOC(=O)C1=C(C)NC(C)=C(C(=O)OCC)C1c1cc(N)ccc1OC(F)F            181
2                 CCCC(CCC)C(=O)NCCN1CCOCC1            412
3  CCOCC(=O)Nc1c(C(=O)Nc2ccc(OC)cc2OC)oc2ccccc12            543
4             O=C(Nc1ccc(N2CCOCC2)cc1)C1CC1            344
5              CC(C)CCNc1cc(=O)n(C)c(=O)n1C            686
6          Cc1cc(=O)n(C)c(=O)n1CCCCCN1CCCC1            655
7  Cc1cccc(NC(=O)CSc2nnc(-c3cc(C)n(-c4ccccc4)c3C)o2)c1C            590

Lab note: measured cell count of COCCNC(=O)CN1C(=O)CSc2ncccc21 was 673

// field: cell count; key: Cc1ccc(C)c(-n2c(CNC(=O)c3ccco3)nnc2SCC(=O)Nc2nnc(C)s2)c1 ; value = 656

---

protocolNotes: inhibitors of TNFa-induced NFkB p65 translocation, primary screen, imaging, HUVEC, MLSMR starter and 10KST1 sets (AID 438);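 further: compound added about 3h40 before a 20 min TNFalpha stimulation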
conditionParameters: HUVEC TNFa-induced p65 nuclear translocation; measured here: nuclei count (cytotoxicity indicator), at 2.08 µM
quantityName: cell count
Enter a number only.

In [3]: df
Out[3]:
                                   molecule  quantityname  endpointvalue
0    COC(=O)c1cc(OC)c(OC)cc1NC(=O)CCC1CCCC1    cell count            452
1  CCN(CC(=O)Nc1c(C(=O)OC)[nH]c2ccccc12)c1ccc2c(c1)OCO2    cell count            309
2  CCn1c(=N)n(CC(O)c2ccco2)c2ccccc21 (stereo not drawn)    cell count            321
3       Cc1nc2cc(C(=O)O)ccc2n1-c1ccc(F)cc1F    cell count            672
4  COCCOC(=O)C1=C(C)NC(=O)CC1c1cc2c(cc1Br)OCO2 (stereo not drawn)    cell count            424

cell count reported for this molecule CCc1cccc(NC(=O)C2CCCN(S(=O)(=O)c3c(C)[nH]c(=O)[nH]c3=O)C2)c1 (stereo not drawn) : 325

// recorded cell count for Cn1c(=O)cc(NCCc2ccccc2)[nH]c1=O : 304

Form: molecule = CCCCOc1ccc(C(=O)N2CCC(C)CC2)cc1 ; cell count = 323

Reported cell count ( CCOC(=O)C1CCN(c2c(N3CCCC(C(=O)OCC)C3)c(=O)c2=O)CC1 (stereo not drawn) ) = 838

Please fill in: cell count reported for CCCC(=O)N1CC(=O)Nc2ccc(C)cc2C1c1ccc(F)cc1 (stereo not drawn) = 698

The value of cell count measured for the molecule Cc1ccc(C(c2nnnn2CCC(C)C)N2CCN(C)CC2)cc1 (stereo not drawn) turned out to be 417

Lookup result for COc1ccc(CCNC(=O)C2CCN(S(=O)(=O)c3cc(OC)ccc3OC)CC2)cc1 ; measured cell count: 269

Reported cell count ( CC12CCC(C(=O)N3CCCCC3)(CC1=O)C2(C)C (stereo not drawn) ) = 483

Noted for COc1ccc(CCNc2nc(N3CCOCC3)nc(N3CCOCC3)n2)cc1OC : its cell count reads 229
